# Test system: HCV replicon
# assay_info: HCV replicon system in Huh7 cells, replicon RNA by Q-RT-PCR (HCV ΔCt, ΔΔCt); also: test concentration or dose not given here
# Assay type: cell-based, hepatitis C virus
# condition_details: Table 25; HCV replicon in Huh7 cells; average of N
API: label(entry) gives criterion met if the entry's Ave. HCV RNA ΔCt is strictly smaller than 4; on equality or larger values it gives criterion not met.

*Q* Confirm or reject: Ave. HCV RNA ΔCt of `Nc1ccn([C@@H]2O[C@H](CO)[C@H](Br)[C@H]2O)c(=O)n1` lies strictly below 4
*A* criterion met

*Q* Report whether reported Ave. HCV RNA ΔCt is lower than 4 (strictly) for `Nc1nc(=O)n([C@@H]2C=C(CO)[C@@H](O)[C@H]2O)cc1F`
*A* criterion met

*Q* A record lists `Nc1nc(Cl)c2ncn([C@H]3CS[C@@H](CO)O3)c2n1` . Is its Ave. HCV RNA ΔCt below 4?
*A* criterion met

*Q* Just wondering, is Ave. HCV RNA ΔCt of `Nc1nc(SSc2nc(N)nc3c2ncn3[C@@H]2O[C@H](CO)[C@@H](O)[C@H]2O)c2ncn([C@@H]3O[C@H](CO)[C@@H](O)[C@H]3O)c2n1` below 4?
*A* criterion not met

*Q* Below 4 on Ave. HCV RNA ΔCt? Entry `O=c1nc(NO)ccn1[C@@H]1O[C@H](CO)[C@@H](O)[C@H]1O`
*A* criterion not met

*Q* Determine if `O=c1nc(NO)c(F)cn1[C@@H]1O[C@H](CO)[C@@H](O)[C@H]1O` shows Ave. HCV RNA ΔCt strictly lower than 4.
*A* criterion not met

*Q* Determine whether this compound shows Ave. HCV RNA ΔCt lower than 4 (ties excluded): Nc1nc(=O)n(C2CSC(CO)O2)cc1F (stereo not shown)
*A* criterion met

*Q* Is it true that Ave. HCV RNA ΔCt reported for `Cc1ccc(S(=O)(=O)O[C@@H]2[C@@H](O)[C@H](n3cc(I)c(N)nc3=O)O[C@@H]2CO)cc1` is less than 4?
*A* criterion not met

*Q* Is Ave. HCV RNA ΔCt of `Nc1ccn([C@@H]2C=C(CO)[C@@H](O)[C@H]2O)c(=O)n1` strictly below 4?
*A* criterion not met

*Q* Item `Nc1cn([C@@H]2O[C@H](CO)[C@@H](O)[C@H]2O)c(=O)nc1N` : Ave. HCV RNA ΔCt beneath 4, strictly?
*A* criterion not met

*Q* Please determine if `O=c1[nH]c(=O)n([C@@H]2O[C@H](CO)[C@@H](O)[C@H]2O)cc1F` is below 4 in terms of Ave. HCV RNA ΔCt.
*A* criterion not met

*Q* Below 4 on Ave. HCV RNA ΔCt? Entry Nc1nc(=O)n(C2OC(CO)C(Br)C2O)cc1F (stereo not shown)
*A* criterion met

*Q* Regarding `Nc1ncnc2c1ncn2[C@@H]1O[C@H](CO)[C@@H](F)[C@H]1O` , kindly confirm whether its Ave. HCV RNA ΔCt is beneath 4.
*A* criterion not met

*Q* Just wondering, is Ave. HCV RNA ΔCt of `Nc1nc(F)nc2c1ncn2[C@@H]1C=C[C@H](CO)O1` below 4?
*A* criterion not met

*Q* Determine if `N=c1ccn2c(n1)O[C@H]1[C@H](O)[C@@H](CO)O[C@H]12` shows Ave. HCV RNA ΔCt strictly lower than 4.
*A* criterion met

*Q* Take the compound `O=c1nc(NO)c(I)cn1[C@@H]1O[C@H](CO)[C@@H](O)[C@H]1O` and say whether its Ave. HCV RNA ΔCt is less than 4.
*A* criterion met

*Q* Please check: Ave. HCV RNA ΔCt for `Nc1ccn([C@@H]2O[C@H](CO)[C@@H](O)[C@@H]2O)c(=O)n1` , strictly under 4 or not?
*A* criterion met
